src = patent US8129417B2

target: human Cav2.2 (Homo sapiens); assay: Assessment of calcium channel activity using FLIPR (Ca2+ influx in IMR32 cells); assay type: cell-based; conditions: 60 minute pre-incubation with compound, 2 μM nifedipine, depolarized with 80 mM KCl
Sequence (Q00975 whole entry): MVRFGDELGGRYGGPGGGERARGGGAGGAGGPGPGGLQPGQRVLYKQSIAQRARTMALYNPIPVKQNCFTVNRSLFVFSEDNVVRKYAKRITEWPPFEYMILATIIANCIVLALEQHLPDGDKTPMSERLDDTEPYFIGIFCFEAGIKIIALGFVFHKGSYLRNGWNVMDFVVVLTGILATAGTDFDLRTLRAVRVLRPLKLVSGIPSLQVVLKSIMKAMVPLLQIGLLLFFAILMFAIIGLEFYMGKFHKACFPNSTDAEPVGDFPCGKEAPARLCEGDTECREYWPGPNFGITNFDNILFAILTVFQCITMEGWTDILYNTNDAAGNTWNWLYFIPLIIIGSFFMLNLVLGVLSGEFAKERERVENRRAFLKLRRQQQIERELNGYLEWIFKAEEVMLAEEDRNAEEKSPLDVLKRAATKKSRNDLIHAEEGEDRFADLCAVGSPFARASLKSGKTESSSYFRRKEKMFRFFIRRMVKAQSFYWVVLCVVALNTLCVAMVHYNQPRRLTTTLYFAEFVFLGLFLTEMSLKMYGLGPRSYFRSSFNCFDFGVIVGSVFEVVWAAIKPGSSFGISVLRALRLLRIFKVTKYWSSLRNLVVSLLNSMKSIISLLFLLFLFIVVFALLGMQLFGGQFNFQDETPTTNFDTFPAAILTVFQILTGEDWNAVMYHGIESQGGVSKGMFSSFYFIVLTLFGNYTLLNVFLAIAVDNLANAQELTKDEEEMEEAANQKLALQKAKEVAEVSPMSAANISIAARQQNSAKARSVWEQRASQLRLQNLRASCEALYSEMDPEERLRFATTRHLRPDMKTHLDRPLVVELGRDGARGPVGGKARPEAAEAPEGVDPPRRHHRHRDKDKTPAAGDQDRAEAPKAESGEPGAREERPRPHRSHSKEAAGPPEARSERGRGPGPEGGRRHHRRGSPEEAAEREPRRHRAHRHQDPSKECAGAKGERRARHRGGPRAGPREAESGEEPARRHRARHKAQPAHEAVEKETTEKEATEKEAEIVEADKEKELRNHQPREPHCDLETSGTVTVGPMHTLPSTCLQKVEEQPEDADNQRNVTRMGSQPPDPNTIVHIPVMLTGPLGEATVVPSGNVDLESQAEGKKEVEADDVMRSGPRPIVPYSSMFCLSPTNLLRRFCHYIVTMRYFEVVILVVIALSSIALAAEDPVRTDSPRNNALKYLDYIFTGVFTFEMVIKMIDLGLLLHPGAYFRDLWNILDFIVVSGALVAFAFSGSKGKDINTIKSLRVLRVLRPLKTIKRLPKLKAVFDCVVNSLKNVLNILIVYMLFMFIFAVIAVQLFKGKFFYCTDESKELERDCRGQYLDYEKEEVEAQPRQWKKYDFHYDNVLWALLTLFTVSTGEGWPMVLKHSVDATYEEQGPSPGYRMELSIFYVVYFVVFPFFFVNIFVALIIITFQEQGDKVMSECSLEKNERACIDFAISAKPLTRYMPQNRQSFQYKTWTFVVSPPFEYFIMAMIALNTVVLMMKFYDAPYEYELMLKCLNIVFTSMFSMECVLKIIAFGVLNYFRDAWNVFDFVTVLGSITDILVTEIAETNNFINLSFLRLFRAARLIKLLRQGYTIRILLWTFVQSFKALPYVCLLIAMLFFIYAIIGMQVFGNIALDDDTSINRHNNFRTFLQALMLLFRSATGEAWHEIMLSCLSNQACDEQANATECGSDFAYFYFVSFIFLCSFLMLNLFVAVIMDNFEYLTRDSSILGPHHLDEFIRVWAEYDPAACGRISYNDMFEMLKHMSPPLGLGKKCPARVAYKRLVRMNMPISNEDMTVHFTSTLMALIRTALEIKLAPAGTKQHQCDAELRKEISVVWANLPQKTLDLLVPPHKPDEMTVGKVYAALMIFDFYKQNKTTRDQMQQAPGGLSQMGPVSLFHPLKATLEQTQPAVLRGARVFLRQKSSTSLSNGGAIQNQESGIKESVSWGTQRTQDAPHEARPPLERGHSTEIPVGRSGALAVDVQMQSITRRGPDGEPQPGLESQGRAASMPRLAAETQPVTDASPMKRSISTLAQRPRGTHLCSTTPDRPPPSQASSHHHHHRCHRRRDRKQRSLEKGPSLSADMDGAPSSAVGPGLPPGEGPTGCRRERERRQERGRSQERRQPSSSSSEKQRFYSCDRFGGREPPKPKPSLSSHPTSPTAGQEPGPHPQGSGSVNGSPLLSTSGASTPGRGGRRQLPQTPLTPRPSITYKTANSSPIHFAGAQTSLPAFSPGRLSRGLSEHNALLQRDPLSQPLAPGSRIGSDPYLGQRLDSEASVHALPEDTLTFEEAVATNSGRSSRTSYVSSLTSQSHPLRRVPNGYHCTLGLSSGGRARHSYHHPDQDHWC
Sequence (P54289 25-946 partner limits assumed): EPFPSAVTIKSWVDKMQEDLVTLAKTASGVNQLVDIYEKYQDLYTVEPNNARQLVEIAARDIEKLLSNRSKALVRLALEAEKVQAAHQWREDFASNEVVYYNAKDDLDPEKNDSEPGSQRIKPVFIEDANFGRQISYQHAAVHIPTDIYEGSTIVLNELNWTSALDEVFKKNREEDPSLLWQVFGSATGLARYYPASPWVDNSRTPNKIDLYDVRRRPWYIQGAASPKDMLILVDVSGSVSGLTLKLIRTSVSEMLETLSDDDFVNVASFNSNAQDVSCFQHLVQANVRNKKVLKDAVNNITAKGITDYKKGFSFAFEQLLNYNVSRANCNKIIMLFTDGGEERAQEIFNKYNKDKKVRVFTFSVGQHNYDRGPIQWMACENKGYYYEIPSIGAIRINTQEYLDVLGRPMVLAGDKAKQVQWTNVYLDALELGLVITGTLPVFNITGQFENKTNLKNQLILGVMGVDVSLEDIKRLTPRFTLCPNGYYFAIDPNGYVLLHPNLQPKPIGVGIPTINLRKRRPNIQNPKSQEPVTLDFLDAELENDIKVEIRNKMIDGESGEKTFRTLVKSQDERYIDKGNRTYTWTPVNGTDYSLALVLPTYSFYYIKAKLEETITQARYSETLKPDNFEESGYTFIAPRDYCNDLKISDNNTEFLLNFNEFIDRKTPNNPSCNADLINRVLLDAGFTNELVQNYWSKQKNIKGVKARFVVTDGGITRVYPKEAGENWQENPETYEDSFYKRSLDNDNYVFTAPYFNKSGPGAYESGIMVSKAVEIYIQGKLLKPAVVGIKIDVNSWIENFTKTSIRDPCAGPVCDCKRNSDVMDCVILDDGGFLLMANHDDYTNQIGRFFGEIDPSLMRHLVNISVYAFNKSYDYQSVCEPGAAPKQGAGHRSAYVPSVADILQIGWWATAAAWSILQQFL
Sequence (P54289 947-1103 partner limits assumed): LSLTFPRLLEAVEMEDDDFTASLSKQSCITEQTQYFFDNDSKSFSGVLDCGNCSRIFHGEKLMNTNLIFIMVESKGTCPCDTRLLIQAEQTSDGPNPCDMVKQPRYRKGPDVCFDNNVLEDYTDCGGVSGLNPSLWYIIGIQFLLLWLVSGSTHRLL
Sequence (P54284 whole entry partner): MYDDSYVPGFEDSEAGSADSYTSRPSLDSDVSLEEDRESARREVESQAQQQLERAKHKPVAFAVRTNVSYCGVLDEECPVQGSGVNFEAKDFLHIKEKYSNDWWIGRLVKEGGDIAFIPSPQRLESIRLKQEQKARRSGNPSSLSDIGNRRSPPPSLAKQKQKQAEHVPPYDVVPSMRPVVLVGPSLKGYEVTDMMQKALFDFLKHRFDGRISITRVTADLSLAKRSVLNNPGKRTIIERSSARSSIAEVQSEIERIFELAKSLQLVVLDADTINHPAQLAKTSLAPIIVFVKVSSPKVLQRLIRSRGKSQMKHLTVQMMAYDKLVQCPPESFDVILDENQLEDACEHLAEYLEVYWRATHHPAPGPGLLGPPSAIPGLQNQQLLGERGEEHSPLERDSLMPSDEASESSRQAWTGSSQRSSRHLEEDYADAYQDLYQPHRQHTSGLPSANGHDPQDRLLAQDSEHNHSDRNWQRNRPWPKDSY
QUANTITY: pIC50
Formally, pIC50 is defined as -log10 of the concentration c, with c in mol/L.

Answered examples (4):
CCCC[C@H](NC)C(=O)N[C@H]1CC[C@@H]2CN(S(=O)(=O)c3ccc(F)cc3)C[C@@H]21 [Example 454] : 5.69
CC(C)C[C@@H](C(=O)N[C@@H]1CC[C@@H]2CN(S(=O)(=O)c3ccc(C(F)(F)F)cc3)C[C@@H]21)N(C)C(=O)OC(C)(C)C [Example 329] : 5.59
CN(C(=O)OC(C)(C)C)[C@@H](CC(C)(C)C)C(=O)N[C@H]1CC[C@@H]2CN(S(=O)(=O)c3ccc(C(F)(F)F)cc3)C[C@@H]21 [Example 337] : 6.11
O=C(N[C@H]1CC[C@H]2CN(Cc3cccc(C(F)(F)F)c3)C[C@H]21)C(c1ccccc1)c1ccccc1 (relative stereo) [Example 135] : 6.05

Q. Quickly give me recorded pIC50 for CCCC(CCC)C(=O)N[C@H]1CC[C@H]2CN(Cc3cccc(C(F)(F)F)c3)C[C@H]21 (relative stereo) [Example 126]
A. 6.00

Q. Supply measured pIC50 of CC(C)CN[C@@H](CC(C)(C)C)C(=O)N[C@H]1CC[C@@H]2CN(S(=O)(=O)c3ccc(C(F)(F)F)cc3)C[C@@H]21 [Example 473] in your reply.
A. 5.58
